TEST_TARGET: Cytochrome P450 2D6 (Homo sapiens) (UniProt P10635)
Sequence (P10635 whole entry, looked up): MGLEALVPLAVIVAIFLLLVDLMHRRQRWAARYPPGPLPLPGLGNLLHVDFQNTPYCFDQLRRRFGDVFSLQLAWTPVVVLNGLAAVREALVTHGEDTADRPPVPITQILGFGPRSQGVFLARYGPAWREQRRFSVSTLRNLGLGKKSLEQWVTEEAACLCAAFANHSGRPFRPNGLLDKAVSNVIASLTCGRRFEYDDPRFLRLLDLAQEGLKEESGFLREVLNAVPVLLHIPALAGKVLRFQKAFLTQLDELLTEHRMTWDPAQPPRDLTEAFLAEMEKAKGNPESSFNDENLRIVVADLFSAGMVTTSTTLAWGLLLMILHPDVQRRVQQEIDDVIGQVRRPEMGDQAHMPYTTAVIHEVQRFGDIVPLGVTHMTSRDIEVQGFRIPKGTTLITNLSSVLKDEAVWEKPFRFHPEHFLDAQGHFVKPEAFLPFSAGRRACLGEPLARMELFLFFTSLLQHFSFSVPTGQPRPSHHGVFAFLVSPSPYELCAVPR
METHOD_DESCRIPTION: Cytochrome P450 Family 2 Subfamily D Member 6 (CYP2D6) small molecule antagonists: luciferase reporter qHTS assay (AID 1671196); note: nearly all actives have a fitted effect of over 50% in size; note: potency is the fitted concentration of half-maximal effect
STATED_CONDITIONS: P450-Glo CYP2D6 enzyme assay, luciferin luminescence, 1 h; series mostly up to 115 µM
Inconclusive results are not listed. Active and inactive are the calls of the source. Calls come from the whole dose curve; as a rule, active = well fitted inhibition curve with a large enough effect in the repeat runs; inconclusive = weak or mixed curves; inactive = no such curve, though single readings can be large or run the other way.
PARAMETER_MEASURED: Potency

Observe how each entry below is paired with its result.
COC(=O)/C=C/C(C)=C\C=C\C(C)=C\C=C\C=C(C)\C=C\C=C(C)\C=C\C(=O)O : 39.9 µM (active)
CC(O)C(C)O (stereo not given) : inactive
CC1=C(C)C(=O)C(C(CCCCCC(=O)O)c2ccccc2)=C(C)C1=O (stereo not given) : inactive
Nc1cccc2c(=O)[nH][nH]c(=O)c12 : 5.05 µM (active)
C[C@]12CCC(=O)C=C1[C@@H]1C[C@@H]1[C@H]1[C@@H]3[C@@H]4C[C@@H]4[C@@]4(CCC(=O)O4)[C@@]3(C)CC[C@@H]12 : inactive
CCCC1CCOC(C)S1 (stereo not given) : inactive
CC(C)CCCCCCCOC(=O)c1ccc(C(=O)OCCCCCCCC(C)C)c(C(=O)OCCCCCCCC(C)C)c1 : inactive
O=C(c1ccc(Cl)cc1)c1ccc(Cl)cc1 : inactive

# Potency lookup, item O=P(c1ccccc1)(c1ccccc1)c1ccccc1 inactive

# Potency lookup, item CC(C)Cc1nccs1 12.9 µM (active)

====

TEST_TARGET: Progesterone receptor (Homo sapiens) (UniProt P06401)
Sequence (P06401 whole entry, looked up): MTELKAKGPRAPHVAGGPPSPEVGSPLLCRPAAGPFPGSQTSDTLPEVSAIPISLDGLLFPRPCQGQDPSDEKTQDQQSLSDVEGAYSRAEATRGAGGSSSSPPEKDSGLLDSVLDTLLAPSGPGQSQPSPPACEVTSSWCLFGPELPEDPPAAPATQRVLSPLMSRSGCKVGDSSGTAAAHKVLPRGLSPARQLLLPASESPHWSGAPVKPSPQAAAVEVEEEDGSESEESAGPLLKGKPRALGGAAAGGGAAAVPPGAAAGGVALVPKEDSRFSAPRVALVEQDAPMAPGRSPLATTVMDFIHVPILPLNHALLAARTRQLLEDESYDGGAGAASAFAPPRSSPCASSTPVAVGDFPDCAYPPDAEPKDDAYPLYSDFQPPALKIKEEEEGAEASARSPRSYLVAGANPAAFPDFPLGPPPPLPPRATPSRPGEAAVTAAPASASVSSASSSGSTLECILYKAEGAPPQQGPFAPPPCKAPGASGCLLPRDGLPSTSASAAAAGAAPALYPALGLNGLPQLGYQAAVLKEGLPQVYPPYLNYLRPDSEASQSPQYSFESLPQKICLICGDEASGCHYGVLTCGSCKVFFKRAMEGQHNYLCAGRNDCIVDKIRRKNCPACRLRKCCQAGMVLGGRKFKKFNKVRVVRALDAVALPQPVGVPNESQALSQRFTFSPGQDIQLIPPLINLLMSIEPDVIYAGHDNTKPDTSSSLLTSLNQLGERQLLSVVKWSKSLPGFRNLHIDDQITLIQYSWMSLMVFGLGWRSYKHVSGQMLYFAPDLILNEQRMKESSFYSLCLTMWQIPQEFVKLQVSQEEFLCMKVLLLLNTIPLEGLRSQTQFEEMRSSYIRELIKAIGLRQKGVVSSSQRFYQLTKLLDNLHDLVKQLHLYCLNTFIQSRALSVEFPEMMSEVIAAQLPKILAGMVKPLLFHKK
METHOD_DESCRIPTION: qHTS assay to identify small molecule agonists of the progesterone receptor (PR) signaling pathway (AID 1346784); note: nearly all actives have a fitted effect of over 30% in size
STATED_CONDITIONS: PR-UAS-bla HEK293T, beta-lactamase FRET ratio, 16 h; series mostly up to 92.4 µM
Description: U.S. Tox21 Program National Center for Advancing Translational Sciences [NCATS] NIH Chemical Genomics Center [NCGC] U.S. Environmental Protection Agency [EPA] National Institutes of Environmental Health Sciences [NIEHS] National Toxicology Program [NTP] U.S. Food and Drug Administration [FDA] […] Endocrine disrupting chemicals (EDCs) and their interactions with steroid hormone receptors like PR causes disruption of normal endocrine function. […]
Records with an inconclusive call do not appear. Activity calls are given as the source filed them. The call rests on the fitted dose curve.
Field 'call' accepts true (1) (active), false (0) (inactive)

CC[C@H](NC(C)C)[C@H](O)c1ccc(O)c2[nH]c(=O)ccc12 : false (0)
O=C(O)c1ccccc1-n1cc(C(=O)O)c(=O)c2cc(Nc3c(F)cc(F)cc3Cl)c(Cl)cc21 : false (0)
CCCOC(C)=O : false (0)
CCC1=C(C)CN(C(=O)NCCc2ccc(S(=O)(=O)NC(=O)NC3CCC(C)CC3)cc2)C1=O (configuration not stated) : false (0)
CC(C(=O)O)c1ccc2c(c1)Cc1cccnc1O2 (configuration not stated) : false (0)
CCCCCCC/C=C/C=O : false (0)

What call does the record list for Cc1c(-c2cccnc2)c2ccccc2n1CCCCC(=O)O ? false (0)

What call does the record list for OCCc1ccncc1 ? false (0)

What call does the record list for CC(C)=CCC/C(C)=C/C=N/O ? false (0)

What call does the record list for O=C(O)CNc1ccccc1 ? false (0)

What call does the record list for CC(=O)Nc1ccn(C2COC(COC(=O)c3ccccc3)O2)c(=O)n1 (configuration not stated) ? false (0)

What call does the record list for CC1=CC(=C(c2ccc(N)cc2)c2ccc(N)cc2)C=CC1=N ? true (1)

What call does the record list for Cc1nc2sccn2c(=O)c1CCN1CCC(=C(c2ccc(F)cc2)c2ccc(F)cc2)CC1 ? false (0)

What call does the record list for O=C(Cl)c1cc(Cl)cc(Cl)c1 ? false (0)

What call does the record list for Oc1ccc(CCNCCCCCCNCCc2ccccc2)cc1O ? false (0)

What call does the record list for COc1ccc(/C(C)=C/C(=O)O)c(OC)c1 ? false (0)
